- Test system: NCI-H522
- protocol-details: NCI tumour cell line growth inhibition, 48 h
Active and inactive are the calls of the source. No stated cut-off is given here; in the data, active = GI50 up to about 1.1 µM and inactive = higher.
Tick one outcome: 1 (active), 0 (inactive)

compound	class-assignment
O=C(/C=C(\O)c1cc(-c2ccccc2)n(-c2ccccc2)n1)c1ccccc1	0
CCCCCC1CC(C(C)=O)CN1c1ccc(F)cc1 (centres undefined)	0

Input line: Could you kindly confirm the outcome this assay logged for Clc1ccc(C2SCc3nc4ccccc4n32)cc1Cl (centres undefined) ?
Output line: 0

Input line: Could you kindly confirm the outcome this assay logged for COC(=O)C1CCC(=S)N1C(=O)c1ccccc1 (centres undefined) ?
Output line: 0

Input line: Could you kindly confirm the outcome this assay logged for COC(=O)[C@@H]1Cc2c([nH]c3ccccc23)[C@H](c2ccccc2)N1 ?
Output line: 0
